Ref: patent US20110077248A1

- system under test: SIRT1 (Homo sapiens)
- Construct: His-tag (N); made in house; host or cells: E. coli BL21(DE3), T7-promoter vector
- test name: Mass spectrometry based assay for modulators of SIRT1 activity (deacetylation of p53-based acetylated peptide)
- Format: biochemical
- study conditions: concentration of test compound that results in 150% activation of SIRT1; 0.5 μM peptide substrate, 120 μM βNAD+, 10 nM SIRT1, 25 min, 25° C.
readout type: EC1.5

O=C(Nc1ccc(CN2CCOCC2)cc1)c1cccn2cc(-c3ccc(F)cc3C(F)(F)F)nc12	B (EC1.5 1-25 uM)
Cc1nc(C)c(-c2nc3c(C(=O)Nc4nccs4)cccn3n2)s1	C (EC1.5>25 uM)
O=C(Nc1nccs1)c1cccn2nc(-c3ccc(N4CCOCC4)cc3C(F)(F)F)nc12	A (EC1.5<1.0 uM)
O=C(Nc1cccnn1)c1nccn2cc(-c3ccc(F)cc3C(F)(F)F)nc12	B (EC1.5 1-25 uM)
O=C(Nc1nc(CN2CCOCC2)cs1)c1cccn2cc(-c3ccc(F)cc3C(F)(F)F)nc12	A (EC1.5<1.0 uM)
O=C(Nc1nc(CN2CCOCC2)cs1)c1cccn2cc(-c3cc(F)ccc3F)nc12	A (EC1.5<1.0 uM)

Please give EC1.5, item by item, for the list that follows.
1. O=C(Nc1nccs1)c1cccn2cc(-c3ccc(F)cc3)nc12
2. O=C(Nc1ccc(CCN2CCCC2)cc1)c1cccn2cc(-c3ccc(F)cc3C(F)(F)F)nc12

OUT:
["C (EC1.5>25 uM)", "C (EC1.5>25 uM)"]

* * *

- system under test: SIRT1 (Homo sapiens)
- Construct: His-tag (N); made in house; host or cells: E. coli BL21(DE3), T7-promoter vector
- test name: Mass spectrometry based assay for modulators of SIRT1 activity (deacetylation of p53-based acetylated peptide)
- Assay type: biochemical
- study conditions: percent maximum fold activation of SIRT1
Task for the reader: assign each of the following compounds its reported Emax.

O=C(Nc1ncc(CN2CCOCC2)s1)c1cccn2cc(-c3cccc(C(F)(F)F)c3)nc12 [Compound 134]	> 200%
O=C(Nc1cccc(CN2CCOCC2)n1)c1nccn2cc(-c3cccc(OC(F)(F)F)c3)nc12 [Compound 158]	> 200%
O=C(Nc1cccc(CN2CCOCC2)n1)c1cccn2nc(-c3cccc(OC(F)(F)F)c3)nc12 [Compound 180]	> 200%

Please give Emax, item by item, for the list that follows.
1. Cc1cc(-c2nc3c(C(=O)Nc4cccc(CN5CCOCC5)n4)cccn3n2)ccn1 [Compound 217]
2. O=C(Nc1ccccn1)c1cccn2cc(-c3cccc(F)c3)nc12 [Compound 155]

OUT:
1. > 200%
2. < 200%

* * *

- system under test: SIRT1 (Homo sapiens)
- Construct: His-tag (N); made in house; host or cells: E. coli BL21(DE3), T7-promoter vector
- Sequence (Q96EB6 1-747): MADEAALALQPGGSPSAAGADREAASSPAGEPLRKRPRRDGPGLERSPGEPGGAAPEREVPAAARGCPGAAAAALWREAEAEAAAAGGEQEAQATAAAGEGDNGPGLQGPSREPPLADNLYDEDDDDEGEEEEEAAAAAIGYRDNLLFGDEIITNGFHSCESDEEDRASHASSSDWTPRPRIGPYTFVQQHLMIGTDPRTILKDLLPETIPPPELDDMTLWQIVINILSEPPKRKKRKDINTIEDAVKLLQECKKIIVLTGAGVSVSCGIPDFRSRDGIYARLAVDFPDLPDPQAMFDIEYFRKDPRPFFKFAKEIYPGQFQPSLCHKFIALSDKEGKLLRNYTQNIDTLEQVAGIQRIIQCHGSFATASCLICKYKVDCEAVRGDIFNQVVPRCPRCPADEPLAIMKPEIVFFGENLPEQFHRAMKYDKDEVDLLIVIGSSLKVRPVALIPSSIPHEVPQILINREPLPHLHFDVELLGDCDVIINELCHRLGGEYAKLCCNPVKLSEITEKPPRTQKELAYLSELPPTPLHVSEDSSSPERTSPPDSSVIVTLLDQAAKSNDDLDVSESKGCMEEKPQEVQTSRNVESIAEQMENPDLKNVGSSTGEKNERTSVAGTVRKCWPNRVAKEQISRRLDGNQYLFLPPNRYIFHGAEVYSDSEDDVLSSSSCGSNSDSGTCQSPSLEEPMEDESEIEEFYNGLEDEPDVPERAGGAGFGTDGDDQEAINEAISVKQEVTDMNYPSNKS
- test name: Mass spectrometry based assay for modulators of SIRT1 activity (deacetylation of p53-based acetylated peptide)
- Assay type: biochemical
- study conditions: concentration of test compound that results in 150% activation of SIRT1; 0.5 μM peptide substrate, 120 μM βNAD+, 10 nM SIRT1, 25 min, 25° C.
readout type: EC1.5

Solved cases (7 shown):
O=C(Nc1cccn2cc(-c3cccc(C(F)(F)F)c3)nc12)c1cnccn1	B (EC1.5 1-25 uM)
O=C(Nc1nccs1)c1nccn2cc(-c3ccccc3C(F)(F)F)nc12	A (EC1.5<1.0 uM)
O=C(Nc1cccn2cc(-c3cccc(C(F)(F)F)c3)nc12)c1ncccn1	B (EC1.5 1-25 uM)
O=C(Nc1nccs1)c1cccn2nc(-c3ccccc3OC(F)F)nc12	B (EC1.5 1-25 uM)
O=C(Nc1nc(CN2CCOCC2)cs1)c1cccn2cc(-c3ccc(C(F)F)cc3)nc12	B (EC1.5 1-25 uM)
O=C(Nc1ccccn1)c1cccn2cc(-c3cccc(CN4CCCC4)c3)nc12	B (EC1.5 1-25 uM)
O=C(Nc1nc(CN2CCOCC2)cs1)c1cccn2cc(-c3cccc(C(F)F)c3)nc12	A (EC1.5<1.0 uM)

IN: # query: EC1.5 | item O=C(Nc1cccc(CN2CCOCC2)n1)c1cccn2cc(-c3cc(F)c(F)c(F)c3)nc12 | system: SIRT1 (Homo sapiens)
OUT: B (EC1.5 1-25 uM)

* * *

- system under test: SIRT1 (Homo sapiens)
- Construct: His-tag (N); made in house; host or cells: E. coli BL21(DE3), T7-promoter vector
- Sequence (Q96EB6 1-747): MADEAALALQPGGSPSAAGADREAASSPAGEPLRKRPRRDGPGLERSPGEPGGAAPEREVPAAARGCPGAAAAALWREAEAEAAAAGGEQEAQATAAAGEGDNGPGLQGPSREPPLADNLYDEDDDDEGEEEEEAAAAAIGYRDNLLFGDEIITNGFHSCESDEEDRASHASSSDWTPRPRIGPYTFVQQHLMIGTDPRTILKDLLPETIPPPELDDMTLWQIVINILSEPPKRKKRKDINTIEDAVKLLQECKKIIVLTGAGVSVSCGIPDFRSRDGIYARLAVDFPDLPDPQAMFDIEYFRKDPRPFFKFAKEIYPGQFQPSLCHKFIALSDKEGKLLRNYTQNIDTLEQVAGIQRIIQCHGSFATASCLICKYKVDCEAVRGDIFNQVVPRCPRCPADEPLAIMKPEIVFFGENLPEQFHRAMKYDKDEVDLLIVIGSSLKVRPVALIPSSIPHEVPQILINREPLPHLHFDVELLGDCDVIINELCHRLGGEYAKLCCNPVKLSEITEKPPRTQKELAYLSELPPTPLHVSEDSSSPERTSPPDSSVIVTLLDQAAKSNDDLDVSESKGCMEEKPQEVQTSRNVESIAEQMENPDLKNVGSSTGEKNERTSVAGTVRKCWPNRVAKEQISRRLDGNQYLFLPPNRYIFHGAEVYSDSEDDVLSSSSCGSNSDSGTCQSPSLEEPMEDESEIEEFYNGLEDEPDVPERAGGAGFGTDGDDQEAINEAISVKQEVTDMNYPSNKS
- test name: Mass spectrometry based assay for modulators of SIRT1 activity (deacetylation of p53-based acetylated peptide)
- Format: biochemical
- study conditions: concentration of test compound that results in 150% activation of SIRT1; 0.5 μM peptide substrate, 120 μM βNAD+, 10 nM SIRT1, 25 min, 25° C.
readout type: EC1.5

Solved cases (5 shown):
O=C(Nc1ccccn1)c1cccn2nc(-c3ccccc3OC(F)F)nc12	B (EC1.5 1-25 uM)
O=C(Nc1nccs1)c1cccn2cc(-c3cccc(CN4CCOCC4)c3)nc12	A (EC1.5<1.0 uM)
O=C(Nc1cccn2cc(-c3cccc(-c4ccccc4)c3)nc12)c1cnccn1	C (EC1.5>25 uM)
O=C(Nc1nc(CN2CCOCC2)cs1)c1cccn2cc(-c3cccc(F)c3F)nc12	B (EC1.5 1-25 uM)
O=C(Nc1ccccn1)c1cccn2cc(-c3ccc(CN4CCCC4)cc3)nc12	B (EC1.5 1-25 uM)

Please give EC1.5, item by item, for the list that follows.
1. O=C(Nc1cnccn1)c1cccn2cc(-c3ccccc3)nc12
2. O=C(Nc1nccs1)c1cccn2cc(-c3ccc(CN4CCCC4)cc3)nc12
3. O=C(Nc1nc(CN2CCOCC2)cs1)c1cccn2cc(-c3ccc(F)c(Cl)c3)nc12
4. O=C(Nc1nccs1)c1nccn2cc(-c3ccc(N4CCCC4)cc3)nc12
5. Cc1cc(-c2nc3c(C(=O)Nc4ccccn4)cccn3n2)ccn1

OUT:
["B (EC1.5 1-25 uM)", "B (EC1.5 1-25 uM)", "A (EC1.5<1.0 uM)", "C (EC1.5>25 uM)", "B (EC1.5 1-25 uM)"]

Please give EC1.5, item by item, for the list that follows.
1. Cc1ccc(-c2cn3ccnc(C(=O)Nc4ccccn4)c3n2)cn1
2. O=C(Nc1nccs1)c1cccn2cc(-c3ccc(C(F)(F)F)cc3)nc12
3. O=C(Nc1ncc(CN2CCOCC2)s1)c1cccn2cc(-c3cccc(C(F)(F)F)c3)nc12

OUT:
1. B (EC1.5 1-25 uM)
2. C (EC1.5>25 uM)
3. A (EC1.5<1.0 uM)

Please give EC1.5, item by item, for the list that follows.
1. O=C(Nc1nc(CN2CCOCC2)cs1)c1cccn2cc(-c3cc(F)cc(F)c3)nc12
2. O=C(Nc1nccs1)c1cccn2nc(-c3ccc(OCC(O)CO)cc3C(F)F)nc12 (stereo in doubt)
3. O=C(Nc1ccccn1)c1nccn2cc(-c3ccccc3C(F)(F)F)nc12
4. O=C(Nc1cccc(CN2CCOCC2)n1)c1cccn2cc(-c3cc(F)cc(F)c3)nc12
5. O=C(Nc1nccs1)c1cccn2nc(-c3cc(N4CCOCC4)ccc3C(F)(F)F)nc12
6. O=C(Nc1cccc(CN2CCOCC2)n1)c1cccn2cc(-c3cccc(OC(F)(F)F)c3)nc12
7. O=C(Nc1cccc(CN2CCOCC2)n1)c1cccn2cc(-c3cccc(C(F)(F)F)c3)nc12

OUT:
1: A (EC1.5<1.0 uM); 2: C (EC1.5>25 uM); 3: B (EC1.5 1-25 uM); 4: A (EC1.5<1.0 uM); 5: A (EC1.5<1.0 uM); 6: A (EC1.5<1.0 uM); 7: A (EC1.5<1.0 uM)

Please give EC1.5, item by item, for the list that follows.
1. O=C(Nc1cccn2cc(-c3cccc(-c4ccccc4)c3)nc12)c1ncccn1
2. O=C(Nc1ccccn1)c1cccn2nc(-c3ccc(OC[C@@H](O)CO)cc3C(F)F)nc12
3. O=C(Nc1cnccn1)c1cccn2cc(-c3cccc(C(F)(F)F)c3)nc12

OUT:
1: B (EC1.5 1-25 uM); 2: B (EC1.5 1-25 uM); 3: B (EC1.5 1-25 uM)

Please give EC1.5, item by item, for the list that follows.
1. O=C(Nc1nccs1)c1cccn2nc(-c3ccc(OCCN4CCOCC4)cc3C(F)F)nc12
2. O=C(Nc1cccc(CN2CCOCC2)n1)c1nccn2cc(-c3ccccc3C(F)(F)F)nc12
3. O=C(Nc1ncc(CN2CCOCC2)s1)c1cccn2cc(-c3cccc(OC(F)(F)F)c3)nc12
4. O=C(Nc1cccc(OCC(O)CO)c1)c1cccn2cc(-c3cccc(OC(F)(F)F)c3)nc12 (stereo not drawn)
5. O=C(Nc1cccc(CN2CCOCC2)n1)c1nccn2cc(-c3cccc(OC(F)(F)F)c3)nc12

OUT:
["B (EC1.5 1-25 uM)", "A (EC1.5<1.0 uM)", "B (EC1.5 1-25 uM)", "B (EC1.5 1-25 uM)", "A (EC1.5<1.0 uM)"]

Please give EC1.5, item by item, for the list that follows.
1. Cc1ccc(-c2cn3ccnc(C(=O)Nc4cccc(CN5CCOCC5)n4)c3n2)cn1
2. O=C(Nc1cccc(CN2CCOCC2)n1)c1nccn2cc(-c3ccc(F)cc3C(F)(F)F)nc12
3. O=C(Nc1cccn2cc(-c3ccccc3)nc12)c1cscn1
4. O=C(Nc1nc(CN2CCOCC2)cs1)c1nccn2cc(-c3ccccc3C(F)(F)F)nc12
5. Cc1nc(C)c(-c2nc3c(C(=O)Nc4ccccn4)cccn3n2)s1

OUT:
1. B (EC1.5 1-25 uM)
2. A (EC1.5<1.0 uM)
3. B (EC1.5 1-25 uM)
4. A (EC1.5<1.0 uM)
5. C (EC1.5>25 uM)
